Please provide measured log10 of binding signal for the entries that follow.
- Measured On: GST-Co-NF-kB (Capsaspora owczarzaki, UniProt F1ARL5 200-546)
- Sequence: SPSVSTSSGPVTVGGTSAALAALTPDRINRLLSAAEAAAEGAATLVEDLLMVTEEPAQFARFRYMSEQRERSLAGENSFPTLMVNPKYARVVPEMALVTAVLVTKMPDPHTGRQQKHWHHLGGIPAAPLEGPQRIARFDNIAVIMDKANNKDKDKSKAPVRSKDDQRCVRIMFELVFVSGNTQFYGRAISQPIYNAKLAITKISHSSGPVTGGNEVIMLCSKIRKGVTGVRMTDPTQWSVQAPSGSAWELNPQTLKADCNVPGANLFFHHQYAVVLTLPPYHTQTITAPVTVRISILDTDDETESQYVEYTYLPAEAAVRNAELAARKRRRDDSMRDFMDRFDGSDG
- Assay: protein-binding microarray (PBM); PBM: ~300 nM protein, 6 mM HEPES pH 7.8, 80 mM KCl, 0.5 mM EDTA, 0.5 mM EGTA, 6% glycerol, 35 ng/ul poly-dIdC, 1% milk, 1 h, room temperature; Ap Aiptasia and Nv Nematostella (sea anemones) / Co Capsaspora / Aq Amphimedon (sponge) / Dm Drosophila / Hu human; RHD is the Rel homology domain; high values mean tight binding
- Protocol Conditions: dsDNA, one strand shown
// stored as log10 of binding signal expressed in z-score

Query: Could you tell me which log10 of binding signal is on file for `CCGATTAACATCACATCTTCCCCTGATGTTAATCGGGTCTTGATTCGCTTGACGCTGCTG` ?
Response: 0.81

Query: Quick one: `CCGATTAACATCAGATACTCCCCTGATGTTAATCGGGTCTTGATTCGCTTGACGCTGCTG`
Response: 0.63

Query: Quick one: `CCGATTAACATCAAGGGGGAGATTGATGTTAATCGGGTCTTGATTCGCTTGACGCTGCTG`
Response: 0.86

Query: Quick one: `CCGATTAACATCAGGACAGCCCCTGATGTTAATCGGGTCTTGATTCGCTTGACGCTGCTG`
Response: 0.02

Query: Quick one: `CCGATTAACATCAGGGGAATCAATGATGTTAATCGGGTCTTGATTCGCTTGACGCTGCTG`
Response: 0.76

Query: Quick one: `CCGATTAACATCAAATTCCCCCTTGATGTTAATCGGGTCTTGATTCGCTTGACGCTGCTG`
Response: 0.95

Query: Quick one: `CCGATTAACATCAAAAAAGCCCCTGATGTTAATCGGGTCTTGATTCGCTTGACGCTGCTG`
Response: 0.26

Query: Quick one: `CCGATTAACATCAAAATTCCCCCTGATGTTAATCGGGTCTTGATTCGCTTGACGCTGCTG`
Response: 1.05

Query: Quick one: `CCGATTAACATCAGAAACCCCCATGATGTTAATCGGGTCTTGATTCGCTTGACGCTGCTG`
Response: 0.44
